Tested on: E. coli ATCC 25922
Settings: ATCC 25922
Positions of bridges follow the written chain, without caps; N, C: chain ends. Non-standard residues stand in square brackets, D forms with d. Residues, ends and D or L forms follow the SMILES beside them. *: point of attachment. Isonicotinoyl(2-Ph) = O=C(c1ccnc(-c2ccccc2)c1)*; Decanoyl(3R-OH) = CCCCCCC[C@@H](O)CC(=O)*; dDab = NCC[C@@H](N)C(=O)O; X8 = CC(C)CCCC(C)CC(=O)*; dDap = NC[C@@H](N)C(=O)O; Dab = NCC[C@H](N)C(=O)O; Abu = CC[C@H](N)C(=O)O
# MIC E. coli ATCC 25922 annotations

Compound | Experimental Target | Unit Symbol | Relation | MIC E. coli ATCC 25922
CC(C)CCCC(C)CC(=O)N[C@H](CCN)C(=O)N[C@H]1CCNC(=O)[C@H](CC(C)C)NC(=O)[C@H](CCN)NC(=O)[C@H](CCN)NC(=O)[C@H](CC(C)C)NC(=O)[C@@H](Cc2ccccc2)NC(=O)[C@H](CCN)NC1=O (stereo partly drawn) [compound 6523] (X8-[dDab][Dab][Dab][dF]L[Dab][Dab]L; lactam 2-C) | E. coli ATCC 25922 | µg/mL | = | 1
CC(C)C[C@@H]1NC(=O)[C@@H](Cc2ccccc2)NC(=O)[C@H](CCN)NC(=O)[C@@H](NC(=O)[C@@H](CCN)NC(=O)c2ccnc(-c3ccccc3)c2)CCNC(=O)[C@H]([C@@H](C)O)NC(=O)[C@H](CCN)NC(=O)[C@H](CCN)NC1=O [compound 6405] ({Isonicotinoyl(2-Ph)}-[dDab][Dab][Dab][dF]L[Dab][Dab]T; lactam 2-C) | E. coli ATCC 25922 | µg/mL | > | 64
CCCCCCC[C@@H](O)CC(=O)N[C@H](CN)C(=O)N[C@H]1CCNC(=O)[C@H](CC(C)C)NC(=O)[C@H](CCN)NC(=O)[C@H](CCN)NC(=O)[C@H](CC)NC(=O)[C@@H](Cc2ccccc2)NC(=O)[C@H](CCN)NC1=O [compound 9292] ({Decanoyl(3R-OH)}-[dDap][Dab][Dab][dF][Abu][Dab][Dab]L; lactam 2-C) | E. coli ATCC 25922 | µg/mL | = | 4
